molecular target: the molecule itself; test: SEC
quantity: binding result

INSERT INTO measurements (protein, quantity, result) VALUES
  ('P. aeruginosa RdgC R198A mutant (natural protein, Pseudomonas aeruginosa PAO1, UniProt Q9HYX7 1-306, looked up) MWFRNLLVYRLTQDLQLDADSLEKALGEKSARPCASQELTTYGFTAPFGKGPDAPLVHVSQDFFLISARKEERILPGSVVRDALKEKVDEIEAQQMRKVYKKERDQLKDEIVQTLLPRAFIRRSSTFAAIAPSLGLILVDSASAKKAEDLLSTLREALGSLPVRPLSVKVAPTATLTDWVKTQEAAGDFHVLDECELADTHEDGGVVRCKRQDLTSEEIQLHLTAGKLVTQLSLAWSDKLSFVLDDKLAVKRLRFEDLLQEQAEKDGGEDALGQLDASFTLMMLTFAEFLPALFEALGGEEIPQGV', 'binding result', 'binds'),
  ('P. aeruginosa RdgC R211D mutant (natural protein, Pseudomonas aeruginosa PAO1, UniProt Q9HYX7 1-306, looked up) MWFRNLLVYRLTQDLQLDADSLEKALGEKSARPCASQELTTYGFTAPFGKGPDAPLVHVSQDFFLISARKEERILPGSVVRDALKEKVDEIEAQQMRKVYKKERDQLKDEIVQTLLPRAFIRRSSTFAAIAPSLGLILVDSASAKKAEDLLSTLREALGSLPVRPLSVKVAPTATLTDWVKTQEAAGDFHVLDECELRDTHEDGGVVRCKDQDLTSEEIQLHLTAGKLVTQLSLAWSDKLSFVLDDKLAVKRLRFEDLLQEQAEKDGGEDALGQLDASFTLMMLTFAEFLPALFEALGGEEIPQGV', 'binding result', 'binds');
